- Protocol details: soluble fraction after stress (log2 fold change); higher = more stays soluble; pooled small domains, quantitative proteomics;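 further: 20 min heating vs room temperature control held 20 min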
- Condition summary: stress: 75 degC
Please note: fulfilled applies when soluble fraction (log2) is -0.2 or greater, and not fulfilled applies otherwise.

Use the examples below as a reference point.
1) HMDDFVEIDGKKYEIDMSFDNILRLFDLLKDKSLNDVTKIETGLIMLIDDSLDDYDTEEKADIFVQIF ... not fulfilled
2) HMSEPTLESLRAEGAHHYDPARFHYLEVLARRMPGQHAAVQQVLASRLREAVAAYAGRRSLI ... fulfilled
3) HMATKEQIKRIYGLGAGLGIVGKDKDDMLHELIFSITGKDSVKQLDDSEFKAVQAELINRMKLA ... fulfilled

**Query** Hi team, for "HMKKVRIPDDPEEAYRKALKTAMNIVGYKDNTEFTLREKLSERGYSGETVDAVAEFMKSKGYV" , is the recorded soluble fraction (log2) at or above -0.2?
**Result** fulfilled

**Query** Hi team, for "HMYPQLIGFKVIDEDKGEVGVVKEVSESMHQILLTVMKGKKEILIPLAEEFITKVNRHKKELFMVLPDG" , is the recorded soluble fraction (log2) at or above -0.2?
**Result** fulfilled

**Query** Hi team, for "HMQEKIREVANRIRELRESLEVSPEEMADHLKVTIGTYIEYERGEADIPASVLFGIAHRLNVDMAVLL" , is the recorded soluble fraction (log2) at or above -0.2?
**Result** not fulfilled

**Query** Hi team, for "HMEDSAKRHQIMDGARRVFMDLGFDGASMNEIARAAGVSKGTLYVYFTDKNRLFEAIVEQESL" , is the recorded soluble fraction (log2) at or above -0.2?
**Result** not fulfilled

**Query** Hi team, for "HMHPEPDPVLFIDGKEYPYDKLSELDETRVQSMTILPKKSAVKKYGDKYANRSIMEITLKKEN" , is the recorded soluble fraction (log2) at or above -0.2?
**Result** fulfilled

###

So I've got a bunch of sequences here, and I need their soluble fraction (log2) values.
- Protocol details: soluble fraction after stress (log2 fold change); higher = more stays soluble; pooled small domains, quantitative proteomics
- Condition summary: stress: 75 degC
Numbers only.

1. HMNYIEWKNTFKKYLYLLPIKEEKETLAYFDEQYNKLNPKDLDNVENIFSDPIDKAAFVVAFYLEMEDEIK ... -0.895

List soluble fraction (log2) for every entry below, keeping the order given.
1. HMRSVPNVAGLGMDGAAFQLGKAGFAIGTITPADDPKAVVGSIQRTEPAAGTVADRDTVVNLFQV
2. HMSQYVPDPVLNAALVGYLDFRKQAGKPMTDYSIRLLLVDLAKLSGNPQEQAAILDQSTKNNWIGVYALG
3. HMSLPALALRQADSLAFKQVIYHDRVVPFNTLARDFVLKLTGKPSYGGMTPEQVVGGWLLRPEVWQNEPM
4. HMITLKKRRQEAILEIIEKYDLSTQDELLQKLKDSGFDATQATVSRDIKELRLVKTMGANGQYKYAVT
5. HMLDQAVPVFETPKYAVSYIQNRLVEMKAASPEEAASRFYESISESERRGLFEALLIKEAEES
6. HMNKPTSMYKLRLLLKHYHAGASKRWMADVLDISRSTLNVYLARIESLNLAFEEWEALSDLEVSRLLINP

**Result**
0.228
-3.04
0.192
-0.881
0.0105
-3.22

List soluble fraction (log2) for every entry below, keeping the order given.
1. HMPMDYFELFNIPRNANRETIKKILDQEYEKYRARVVSPVLEIRHEAELMLVEISKAKQVLLG
2. HMDAEWRTLTLAPEQHQQRLDRALADSLPEFSRSYVQQLIDTGMVRVNGVLAAKSAQRVKALDQVQVELR
3. HMNYSIVNVGFNNKSLFLRSAPGYSASRLLLPFATERAFVRETLSNGWSRVIVRGTEGYLPTEYVAD
4. HMPALATKDSVLDGRAEVVSYVRDTSVFYLRVRVPQKQGYRSRRIDGVSTLPEAITKALDTYMDLGT
5. HMNVPFGYTIKDGLLVEQPDEKAILDNILTWKKGQMTVAEIAKKTGMETWKIYGILNYWRNK

**Result**
-1.08
-0.411
0.345
-2.6
-1.14

List soluble fraction (log2) for every entry below, keeping the order given.
1. HMNMVSGHLQVKKGYYYAVLSFYDSKNKRHVKYISTGLPEKGNKRKAEAELVKIRNAFEPPAE
2. HMSMTVHGALRLLQLPTIADRPYTLKEIREAYREQAQNHHPDAGGSADAMRRLNEAYQFLKERYRQA
3. HMESNDSNIEDDFYEGLKSMRKGDLKMSVVFFTRVIEKKPTFAEAWNRRATVYYMLGKFDKSMFDINETLK
4. HMVTNELFGTRLRAFRKEKGLTIEQLAERVGLSPNYLGDIERGKKLPSMATFIRLVNELDISADEL
5. HMAVSDPTAGGIKALMYPNPAQDRLSVALDIPAGLDKQAQMTVTDMMGRVVTQQQVTLNDGFQVFEL
6. HMQDSSGENNPQSKLTQQQVDLLMKDLKETNVEFDKLAEKYNVSIKTIRNVNTGIAWRKNDITYPIREP
7. HMSMPEVLSDRELEIFRMIGTGMSTGDIAKKLNISVNTIESHRKKIKDKLGIQKGSELVKAAVQWVSTQQ
8. HMIEINNLEDLKLMKEFILKNGKYGFGVFVGGKYIGLSDIGSVNSFKDTLGLPVVSLGNDDFKRFTEAH

**Result**
1: -0.516; 2: -0.449; 3: -0.354; 4: -1.52; 5: 0.268; 6: -0.407; 7: -0.741; 8: -1.07
